meta.source: patent US20220135591A1

Target: MAGL (Homo sapiens)
Sequence (Q99685 1-303): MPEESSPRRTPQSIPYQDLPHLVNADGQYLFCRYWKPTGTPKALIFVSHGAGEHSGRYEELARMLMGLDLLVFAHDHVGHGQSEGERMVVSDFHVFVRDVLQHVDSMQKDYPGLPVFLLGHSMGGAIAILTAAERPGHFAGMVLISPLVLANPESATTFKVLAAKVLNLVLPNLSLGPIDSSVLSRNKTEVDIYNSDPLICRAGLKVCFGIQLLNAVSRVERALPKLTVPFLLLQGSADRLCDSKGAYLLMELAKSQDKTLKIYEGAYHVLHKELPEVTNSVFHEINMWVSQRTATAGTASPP
observable: log10 IC50 (log10 of the value in nM)

- molSmiles: "Cc1ccc2oc(N3CCN(C(=O)c4cnc(OCC5(C(F)(F)F)CC5)c(C)n4)CC3)nc2n1"
  endpointValue: 1.80
- molSmiles: "Cc1cc(C(=O)N2CCN(c3nc4nc(Cl)ccc4o3)CC2)cnc1OCC1(C#N)COC1"
  endpointValue: 3.19
- molSmiles: "Cc1ccc2oc(N3CCN(C(=O)c4ccc(-c5cn(C(C)(C)CF)nn5)cc4)CC3)nc2n1"
  endpointValue: 2.06
- molSmiles: "Cc1cc(C(=O)N2CCN(c3nc4nc(Cl)ccc4o3)CC2)cnc1OCC1(C(F)(F)F)CC1"
  endpointValue: 1.00
- molSmiles: "CC(C)(C)Cn1ncc(-c2ccc(C(=O)N3CCN(c4nc5nc(Cl)ccc5o4)CC3)cc2C(F)(F)F)n1"
  endpointValue: 0.78
- molSmiles: "CCC1(COc2ncc(C(=O)N3CCN(c4nc5nc(Cl)ccc5o4)CC3)cc2C)COC1"
  endpointValue: 2.07
- molSmiles: "O=C(c1ccc(OCC2(C(F)(F)F)CC2)nc1Cl)N1CCN(c2nc3nc(Cl)ccc3o2)CC1"
  endpointValue: 3.18
- molSmiles: "COc1cc(C(=O)N2CCN(c3nc4nc(Cl)ccc4o3)CC2)cnc1OCC1(C(F)(F)F)CC1"
  endpointValue: 2.26
- molSmiles: "Cc1ccc2oc(N3CCN(C(=O)c4cnc(OCC5(C(F)(F)F)CC5)c(F)c4)CC3)nc2n1"
  endpointValue: 1.66
- molSmiles: "CC(C)(C)c1nc(-c2ccc(C(=O)N3CCN(c4nc5nc(Cl)ccc5o4)CC3)cc2Cl)no1"
  endpointValue: 0.60
- molSmiles: "Cc1cc(C(=O)N2CCN(c3nc4nc(Cl)ccc4o3)CC2)cnc1-n1cnc(C(C)(C)C)n1"
  endpointValue: 1.72
- molSmiles: "Cc1ccc2oc(N3CCN(C(=O)c4cnc(-c5cn(CC(C)(C)C)nn5)c(F)c4)CC3)nc2n1"
  endpointValue: 1.70
- molSmiles: "Cc1ccc2oc(N3CCN(C(=O)c4ccc(OCC5(C(F)(F)F)CC5)nc4Cl)CC3)nc2n1"
  endpointValue: 3.42
- molSmiles: "Cc1cc(C(=O)N2CCN(c3nc4nc(Cl)ccc4o3)CC2)ccc1-c1nnc(C(C)(C)C)o1"
  endpointValue: 1.04
- molSmiles: "CC(C)(CF)c1nnc(-c2ccc(C(=O)N3CCN(c4nc5nc(Cl)ccc5o4)CC3)cc2F)o1"
  endpointValue: 2.08
- molSmiles: "Cc1ccc2oc(N3CCN(C(=O)c4ccc(-n5cnc(C(C)(C)C)n5)c(C)c4)CC3)nc2n1"
  endpointValue: 2.24

---

Molecular target: MAGL (recombinant wild-type) (Homo sapiens)
Sequence (Q99685 1-303): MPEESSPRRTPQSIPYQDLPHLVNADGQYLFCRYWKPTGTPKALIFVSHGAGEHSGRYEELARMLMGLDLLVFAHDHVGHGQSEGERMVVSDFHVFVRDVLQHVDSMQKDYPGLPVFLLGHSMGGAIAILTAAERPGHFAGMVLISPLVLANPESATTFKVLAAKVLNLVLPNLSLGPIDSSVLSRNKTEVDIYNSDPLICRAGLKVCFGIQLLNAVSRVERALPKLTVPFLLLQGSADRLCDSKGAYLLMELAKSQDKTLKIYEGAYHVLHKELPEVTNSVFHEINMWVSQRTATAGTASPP
Test: 4-NPA assay: MAGL inhibitory activity by hydrolysis of 4-nitrophenylacetate, absorbance at 405 nm
Conditions: 4-NPA assay (values without footnote [b])

- molSmiles: "O=C(c1ccc(N2CC(Oc3ccccc3)C2)cc1)N1CCN(c2nc3ncccc3o2)CC1"
  IC50: "441 nM"
- molSmiles: "Cc1ccc2oc(N3CCN(C(=O)c4ccc(-c5nnc(C(C)(C)CF)o5)cc4)CC3)nc2n1"
  IC50: "498 nM"
- molSmiles: "Cc1ccc2oc(N3CCN(C(=O)c4ccc(-c5ncn(C(C)(C)C)n5)cc4)CC3)nc2n1"
  IC50: "86 nM"
- molSmiles: "CC(C)(C)Cn1ncc(-c2ccc(C(=O)N3CCN(c4nc5nc(Cl)ccc5o4)CC3)cc2)n1"
  IC50: "3 nM"

---

Protein target, amino acids: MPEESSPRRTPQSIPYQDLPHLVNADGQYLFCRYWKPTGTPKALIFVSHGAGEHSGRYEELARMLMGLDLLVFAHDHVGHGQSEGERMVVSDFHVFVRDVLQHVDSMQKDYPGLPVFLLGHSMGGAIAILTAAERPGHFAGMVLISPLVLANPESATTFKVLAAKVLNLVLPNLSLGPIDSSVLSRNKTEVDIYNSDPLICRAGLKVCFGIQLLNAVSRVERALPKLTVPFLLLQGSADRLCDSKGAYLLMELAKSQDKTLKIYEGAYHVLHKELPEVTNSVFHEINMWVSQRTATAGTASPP
Property: IC50; scope: individual compounds
observable: IC50 (nM)

- compound: "Cc1cc(C(=O)N2CCN(c3nc4nc(Cl)ccc4o3)CC2)cnc1OCC1(C)CC1(F)F (stereo not shown)"
  endpointValue: 11
- compound: "Cc1ccc2oc(N3CCN(C(=O)c4ccc(-c5nnn(CC(C)(C)C)n5)c(C)c4)CC3)nc2n1"
  endpointValue: 3
- compound: "Cc1ccc2oc(N3CCN(C(=O)c4ccc(-c5cn(C(C)(C)C)nn5)cc4)CC3)nc2n1"
  endpointValue: 151
- compound: "CC(C)(C)c1nc(-c2c(F)cc(C(=O)N3CCN(c4nc5nc(Cl)ccc5o4)CC3)cc2F)no1"
  endpointValue: 21
- compound: "CC(C)(C)Cn1cc(-c2ccc(C(=O)N3CCN(c4nc5nc(Cl)ccc5o4)C[C@H]3CO)cc2)nn1 (stereo in doubt)"
  endpointValue: 63
- compound: "Cc1cc(C(=O)N2CCN(c3nc4nc(Cl)ccc4o3)CC2)cnc1OC[C@H](F)CF"
  endpointValue: 978
- compound: "O=C(N1CCN(c2nc3nc(Cl)ccc3o2)CC1)N1CC(C#Cc2ccc(F)cc2Cl)C1"
  endpointValue: 25

---

Biological target: MAGL (recombinant wild-type) (Homo sapiens, UniProt Q99685)
Assay: 4-NPA assay: MAGL inhibitory activity by hydrolysis of 4-nitrophenylacetate, absorbance at 405 nm
Conditions: 4-NPA assay (values without footnote [b])
Experimental: Compounds were profiled for MAGL inhibitory activity by measuring the enzymatic activity of MAGL by following the hydrolysis of 4-nitrophenylacetate resulting in 4-nitrophenol, which absorbs at 405-412 nm (G. G. Muccioli, G. Labar, D. M. Lambert, Chem. Bio. Chem. 2008, 9, 2704-2710). This assay is hereinafter abbreviated “4-NPA assay”. The assay was carried out in 384 well assay plates (black with clear bottom, non-binding surface treated, Corning Ref. 3655) in a total volume of 40 μL. […]
pIC50: −log10 of the molar value.
Property: pIC50; scope: individual molecules

- molecule: "Cc1ccc2oc(N3CCN(C(=O)c4ccc(-c5cnn(CC(C)(C)C)c5)cc4)CC3)nc2n1"
  pIC50: 8.22
- molecule: "Cc1ccc2oc(N3CCN(C(=O)c4cnc(N5CC(OC(C)C(F)(F)F)C5)c(F)c4)CC3)nc2n1 (stereo not drawn)"
  pIC50: 7.05
- molecule: "CC(C)(C)Cn1cc(-c2ccc(C(=O)N3CCN(c4nc5nc(Cl)ccc5o4)CC3)cc2)nn1"
  pIC50: 8.22
- molecule: "Cc1ccc2oc(N3CCN(C(=O)c4cc(OCCC(F)(F)F)cc(-c5ccc(CO)cc5)c4)CC3)nc2n1"
  pIC50: 6.42
- molecule: "Cc1ccc2oc(N3CCN(C(=O)c4cc(OCC5(C)CC5)cc(-c5ccc(CO)cc5)c4)CC3)nc2n1"
  pIC50: 6.78
- molecule: "Cc1ccc2oc(N3CCN(C(=O)c4ccc(N5CC(OC(C)C(F)(F)F)C5)nc4)CC3)nc2n1 (stereo not drawn)"
  pIC50: 6.77
- molecule: "CC(C)(C)n1cc(-c2ccc(C(=O)N3CCN(c4nc5nc(Cl)ccc5o4)CC3)cc2)cn1"
  pIC50: 7.82
- molecule: "CC(C)(C)c1cnn(-c2ccc(C(=O)N3CCN(c4nc5nc(Cl)ccc5o4)CC3)cc2)c1"
  pIC50: 8.30
- molecule: "Cc1ccc2oc(N3CCN(C(=O)c4cnc(N5CCC6(C5)CC6(F)F)c(Cl)c4)CC3)nc2n1 (stereo not drawn)"
  pIC50: 7.21
- molecule: "CC(C)(C)Cc1nc(-c2ccc(C(=O)N3CCN(c4nc5nc(C(F)(F)F)ccc5o4)CC3)cc2)no1"
  pIC50: 7.40
- molecule: "CC1(Cn2ncnc2-c2ccc(C(=O)N3CCN(c4nc5nc(Cl)ccc5o4)CC3)cc2)CC1"
  pIC50: 5.37
- molecule: "CC(C)(C)Cn1cnc(-c2ccc(C(=O)N3CCN(c4nc5nc(Cl)ccc5o4)CC3)cc2)n1"
  pIC50: 8.52
- molecule: "Cc1ccc2oc(N3CCN(C(=O)c4cnc(N5CC(OC(C)C(F)(F)F)C5)cc4C)CC3)nc2n1 (stereo not drawn)"
  pIC50: 5.40
- molecule: "Cc1ccc2oc(N3CCN(C(=O)c4ccc(OCC5(C(F)(F)F)CC5)c(-c5ccc(CO)cc5)c4)CC3)nc2n1"
  pIC50: 8.00
- molecule: "CC(C)(C)Cc1noc(-c2ccc(C(=O)N3CCN(c4nc5nc(Cl)ccc5o4)CC3)cc2)n1"
  pIC50: 8.52
